# IC50 listing for each entry below
- Test system: human GEO colon cancer cells
- assay.overview: Soft agar (anchorage-independent) colony growth of GEO cells
- Assay type: cell-based
- condition.summary: read-out: IC50, inhibition of GEO cell soft agar growth
In the oligonucleotide strings, read from the 5' end, every base follows the letter of its sugar. An asterisk marks phosphorothioate; unmarked linkages are phosphodiester. Other units and linkages are bracketed, terminal groups are in braces. A string of capitals states the bases alone. d = 2'-deoxy (DNA)
result.type: IC50

• CTCTTCTTGACAGTCTGATG (antisense dC*dT*dC*dT*dT*dC*dT*dT*dG*dA*dC*dA*dG*dT*dC*dT*dG*dA*dT*dG) [AS10] = ~500 nM
• ACACTGCCTGAGAGTTGCCC (antisense dA*dC*dA*dC*dT*dG*dC*dC*dT*dG*dA*dG*dA*dG*dT*dT*dG*dC*dC*dC) [AS1] = ~3500 nM
